Biological target: USP25 (USP25-His6, Boston Biochem E-546) (Homo sapiens, UniProt Q9UHP3)
Construct: His6; purchased Boston Biochem E-546
Sequence (Q9UHP3 whole entry): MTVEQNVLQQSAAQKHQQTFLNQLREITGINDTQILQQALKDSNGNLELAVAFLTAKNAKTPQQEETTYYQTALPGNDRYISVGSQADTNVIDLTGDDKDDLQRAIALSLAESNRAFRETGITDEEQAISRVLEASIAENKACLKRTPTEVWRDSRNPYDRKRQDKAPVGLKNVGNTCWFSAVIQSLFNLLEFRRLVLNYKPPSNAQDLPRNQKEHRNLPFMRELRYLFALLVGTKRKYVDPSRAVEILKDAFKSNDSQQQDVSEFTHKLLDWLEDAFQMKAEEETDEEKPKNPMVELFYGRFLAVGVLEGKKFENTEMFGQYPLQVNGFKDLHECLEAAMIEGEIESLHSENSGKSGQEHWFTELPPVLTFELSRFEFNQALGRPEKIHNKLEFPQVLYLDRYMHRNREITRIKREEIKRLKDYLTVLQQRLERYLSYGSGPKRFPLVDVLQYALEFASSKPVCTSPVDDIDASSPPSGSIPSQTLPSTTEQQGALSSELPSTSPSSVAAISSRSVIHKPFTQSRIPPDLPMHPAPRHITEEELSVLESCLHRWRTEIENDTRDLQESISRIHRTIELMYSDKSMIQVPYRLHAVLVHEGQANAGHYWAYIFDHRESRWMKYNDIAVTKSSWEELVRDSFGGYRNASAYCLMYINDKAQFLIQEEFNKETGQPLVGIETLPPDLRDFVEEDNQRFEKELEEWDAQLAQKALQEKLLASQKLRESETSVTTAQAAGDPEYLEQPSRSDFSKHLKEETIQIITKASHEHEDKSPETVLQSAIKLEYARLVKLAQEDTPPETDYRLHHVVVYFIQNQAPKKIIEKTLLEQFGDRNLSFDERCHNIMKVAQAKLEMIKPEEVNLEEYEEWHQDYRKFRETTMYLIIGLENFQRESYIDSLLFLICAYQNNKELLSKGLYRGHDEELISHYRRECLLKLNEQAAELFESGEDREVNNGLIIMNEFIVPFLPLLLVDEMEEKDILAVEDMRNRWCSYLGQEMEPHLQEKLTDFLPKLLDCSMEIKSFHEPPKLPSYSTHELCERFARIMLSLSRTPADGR
Assay: Ubiquitin-Rhodamine 110 Assay for USP25 Activity, Example A-2
Assay type: biochemical
Settings: Ubiquitin-Rhodamine 110 assay, Example A-2; read-out: USP25 A-2 IC50 range
pIC50: −log10 of the molar value.
readout kind: pIC50

Consider the reported pIC50 for these molecules:
molecule | readout kind | endpoint value
Cc1ccc2c(N)c(C(=O)N[C@H]3CCc4nc(N5C[C@@H](N)[C@H](C(F)F)C5)ccc4C3)sc2n1 | pIC50 | 5.70 to 6.70
Cc1nc2sc(C(=O)N[C@H]3CCc4nc(N5CCNCC5)ccc4C3)c(N)c2cc1F | pIC50 | 5.70 to 6.70
CO[C@H]1[C@H](N)CN(c2ccc3c(c2)OC[C@H](NC(=O)c2sc4nc(C)ccc4c2N)C3)[C@H]1C | pIC50 | 7.30 to 9.00

Exercise: Request the reported pIC50 associated with Cc1ccc2c(N)c(C(=O)N[C@H]3COc4cc(O[C@@H]5COC6(CNC6)C5)ccc4C3)sc2n1 (single isomer, unassigned)
Key: 6.70 to 7.30

Exercise: Repeat with CCn1cc(Cl)c2cc(C(=O)N[C@H]3COc4c(F)c(N5CC6CCC(C5)N6)cc(F)c4C3)nnc21
Key: 5.70 to 6.70

Exercise: Repeat with Cc1cc(C)c2c(N)c(C(=O)N[C@H]3COc4c(C#N)c(N5CC6CCC(C5)N6)cc(F)c4C3)sc2n1
Key: 5.70 to 6.70

Exercise: Repeat with CO[C@]1(C)CN(c2ccc3c(n2)OC[C@H](NC(=O)c2sc4nc(C)ccc4c2N)C3)C[C@H]1N
Key: < 5.70

----------
Listed here: items and their measured IC50.
Target: USP28 (His-tagged USP28-FL-mammalian) (Homo sapiens)
Construct: Expression of USP28 (1-1077)-TEV-6*His (pTT5 vector); made in house; host or cells: Expi293f cells (pTT5 vector)
Sequence (Q96RU2 whole entry): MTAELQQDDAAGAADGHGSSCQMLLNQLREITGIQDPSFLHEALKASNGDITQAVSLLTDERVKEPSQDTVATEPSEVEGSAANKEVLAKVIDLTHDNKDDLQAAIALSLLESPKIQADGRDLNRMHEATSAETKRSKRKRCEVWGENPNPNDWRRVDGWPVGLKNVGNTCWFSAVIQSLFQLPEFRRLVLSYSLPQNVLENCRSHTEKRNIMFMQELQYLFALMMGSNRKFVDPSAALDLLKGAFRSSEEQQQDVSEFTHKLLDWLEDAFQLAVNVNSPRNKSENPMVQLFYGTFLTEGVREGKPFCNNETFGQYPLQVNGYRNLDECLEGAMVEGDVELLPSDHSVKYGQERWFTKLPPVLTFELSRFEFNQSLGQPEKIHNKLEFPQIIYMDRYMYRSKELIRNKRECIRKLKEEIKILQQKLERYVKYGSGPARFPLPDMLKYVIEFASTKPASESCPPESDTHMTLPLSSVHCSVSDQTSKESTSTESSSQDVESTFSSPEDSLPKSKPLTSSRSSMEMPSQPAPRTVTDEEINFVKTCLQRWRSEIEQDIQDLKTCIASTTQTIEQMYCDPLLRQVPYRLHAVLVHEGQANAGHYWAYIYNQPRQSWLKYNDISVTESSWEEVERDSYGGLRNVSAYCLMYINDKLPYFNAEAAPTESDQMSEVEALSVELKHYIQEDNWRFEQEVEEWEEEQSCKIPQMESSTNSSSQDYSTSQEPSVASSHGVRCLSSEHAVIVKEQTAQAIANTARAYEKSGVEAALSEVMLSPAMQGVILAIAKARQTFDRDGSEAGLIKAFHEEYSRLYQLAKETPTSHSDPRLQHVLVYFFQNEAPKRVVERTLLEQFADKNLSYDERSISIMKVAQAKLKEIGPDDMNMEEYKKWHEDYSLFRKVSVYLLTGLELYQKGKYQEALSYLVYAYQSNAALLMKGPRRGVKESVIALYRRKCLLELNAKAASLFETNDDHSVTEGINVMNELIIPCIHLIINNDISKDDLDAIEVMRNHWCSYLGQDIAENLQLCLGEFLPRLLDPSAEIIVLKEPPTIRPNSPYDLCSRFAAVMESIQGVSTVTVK
Test: Ubiquitin-Rhodamine 110 Assay for USP28 Activity, Example A-1(a)
Type: biochemical
Settings: Ubiquitin-Rhodamine 110 assay, Example A-1(a); read-out: USP28 A-1(a) IC50 range
Text: Example A-1(a): Biochemical Assay: Ubiquitin-Rhodamine 110 Assay for USP28 Activity […] For assay formats Example A-1(a), A-1(b), and A-2, data were reported as percent inhibition compared with control wells based on the following equation: % inh=1−((FLU−AveLow)/(AveHigh−AveLow)) where FLU=measured Fluorescence, AveLow=average Fluorescence of no enzyme control (n=16), and AveHigh=average Fluorescence of DMSO control (n=16). […]

Consider the reported IC50 for these compounds:
compound | IC50
Cc1ccc2c(N)c(C(=O)N[C@H]3COc4cc(N5C[C@H](N)CC[C@H]5C(F)(F)F)ccc4C3)sc2n1 [Example 247] | 1 to 50 nM
Cc1ccc2c(N)c(C(=O)N[C@@H]3CCc4c(ccc(N5CC6CNCC(C5)O6)c4F)C3)sc2n1 [Example 100] | 50 to 200 nM
Cc1ccc2c(N)c(C(=O)N[C@H]3CCc4nc(N5C[C@H](CF)[C@H](N)C5)ccc4C3)sc2n1 (single isomer, unassigned) [Example 27-2] | 50 to 200 nM
COCCO[C@H]1CN(c2ccc3c(n2)CC[C@H](NC(=O)c2sc4nc(C)ccc4c2N)C3)C[C@@H]1N (single isomer, unassigned) [Example 28-1] | 200 to 2000 nM
Cc1ccc2c(N)c(C(=O)N[C@H]3CCc4nc(N5C[C@@H](N)[C@]6(CCCO6)C5)ccc4C3)sc2n1 [Example 391] | 50 to 200 nM
CO[C@H]1CN(c2ccc3c(c2)CC[C@H](NC(=O)c2cnc4c(c2)[C@H]2C[C@H]2CN4)C3)C[C@@H]1N [Example 190] | > 2000 nM
Cc1cnc2c(N)c(C(=O)N[C@H]3CCc4nc(N5C[C@H](N)C6(COC6)C5)ccc4C3)sc2n1 [Example 365] | 1 to 50 nM
Cc1ccc2c(N)c(C(=O)N[C@H]3COc4cc(N5CC6(C5)OCC[C@@H]6N)ccc4C3)sc2n1 [Example 338] | 50 to 200 nM
Cc1ccc2c(N)c(C(=O)N[C@@H]3CCc4cc(N5CCNCC5)ncc4C3)sc2n1 (single isomer, unassigned) [Example 32-2] | 200 to 2000 nM
CO[C@@]1(C)CN(c2ccc3c(n2)CC[C@H](NC(=O)c2sc4nc(C)ccc4c2N)C3)C[C@@H]1N [Example 210] | 50 to 200 nM

Exercise: Request the reported IC50 associated with Cc1ccc2c(N)c(C(=O)N[C@H]3COc4cc(N5C[C@@H](N)C(C)(C)C5)ccc4C3)sc2n1 [Example 215]
Key: 1 to 50 nM

Exercise: Repeat with Cc1ccc2c(N)c(C(=O)N[C@H]3COc4cc(N5C[C@H](N)C(F)(F)C5)ccc4C3)sc2n1 [Example 256]
Key: 1 to 50 nM

Exercise: Repeat with Cc1ccc2c(N)c(C(=O)N[C@H]3CCc4nc(N5C[C@H](C(F)F)[C@@H](N)C5)ncc4C3)sc2n1 [Example 380]
Key: 50 to 200 nM

Exercise: Repeat with Cc1ccc2c(N)c(C(=O)N[C@H]3COc4cc(N5CC6CNCC(C5)O6)c(F)cc4C3)sc2n1 [Example 106]
Key: 1 to 50 nM
